# protocolDetails: gradient 5% acetonitrile 3 min, to 50% in 2 min, to 85% in 15 min, held 3 min, 100 µL/min
# particulars: column: Zorbax Extend-C18 2.1 x 50 mm; eluents: water / acetonitrile, 0.1% formic acid
With a cut-off of 700 s, any RP-LC retention time strictly below it is called Met; any RP-LC retention time meeting it or above is called Not met.

Solved cases (2 shown):
{"molecule": "CS(=O)(=O)N1CCCc2ccc(NS(=O)(=O)c3ccccc3Cl)cc21", "discreteLabel": "Not met"}
{"molecule": "COc1ccc(Cc2nnc(SCC(=O)Nc3nc(-c4ccccc4)cs3)o2)cc1", "discreteLabel": "Not met"}

Prompt: Take the molecule CN1C(=O)c2cc(C(=O)NCCc3ccccc3)nn2CC1(C)C(=O)NCc1ccc(F)cc1 (stereo not given) and say whether its RP-LC retention time is less than 700 s.
Completion: Not met

Prompt: Input O[Si](CCCN1CCCCC1)(c1ccc(F)cc1)C1CCCCC1 (stereo not given) ; condition: RP-LC retention time strictly below 700 s. Does it hold?
Completion: Not met

Prompt: Quick check: RP-LC retention time of `COc1cc(-c2noc(Cn3ncn4nc(-c5ccc(C)cc5C)cc4c3=O)n2)cc(OC)c1OC` under 700 s?
Completion: Not met

Prompt: Does `CCc1nc(-c2ccc(-c3noc(CNS(=O)(=O)c4ccc(Cl)cc4)n3)cc2)cs1` have RP-LC retention time strictly under 700 s?
Completion: Not met

Prompt: Determine whether this molecule shows RP-LC retention time lower than 700 s (ties excluded): CC(C)(C)c1ccc(S(=O)(=O)N2CCCCC2C(=O)N2CCN(c3ccc(F)cc3)CC2)cc1 (stereo not given)
Completion: Not met

Prompt: Say whether its RP-LC retention time is strictly beneath 700 s. Entry: `Cc1ccc(S(=O)(=O)c2cnc(N3CCc4ccccc4C3)nc2N)cc1C`
Completion: Not met

Prompt: Here's an entry: `O=C(Nc1nc(-c2ccccc2)cs1)c1ccc(S(=O)(=O)N2CCCCC2)cc1` . Is its RP-LC retention time below 700 s?
Completion: Not met

----------
Each entry below carries its reported RP-LC retention time.
# protocolDetails: gradient 5% acetonitrile 3 min, to 50% in 2 min, to 85% in 15 min, held 3 min, 100 µL/min
# particulars: column: Zorbax Extend-C18 2.1 x 50 mm; eluents: water / acetonitrile, 0.1% formic acid
Report the value in s with no unit label.

Look over these answered cases.
{"compound": "Cc1ccc(C)c(N2CCN(C(=O)C3CCN(c4nccnc4Sc4ccccc4)CC3)CC2)c1", "RP-LC retention time / s": 1320}
{"compound": "CCN1CCN(C(=O)C(C)C2CCN(S(=O)(=O)c3ccc(Cl)s3)CC2)CC1 (centres undefined)", "RP-LC retention time / s": 666}
{"compound": "O=C(Nc1ccc(N2CCOCC2)cc1)C1CCCN(c2ccnc(-c3ccc(F)cc3)n2)C1 (centres undefined)", "RP-LC retention time / s": 649}
{"compound": "CCN(C(=O)C1CCN(C(=O)c2ccc(F)cc2)CC1)C1CCCCC1", "RP-LC retention time / s": 885}
{"compound": "CCOc1c(C(=O)OC)sc2ccc(NC(=O)c3[nH]nc4c3CCc3ccccc3-4)cc12", "RP-LC retention time / s": 1140}

Prompt: Can you look up the measured RP-LC retention time of CN(C)C(CNC(=O)C(=O)NCCC1=CCCCC1)c1ccsc1 (centres undefined) for me?
Completion: 590

Prompt: # RP-LC retention time lookup, item CCCNC(=O)c1ncn2c1C(=O)N(C1CC1)C(C)(C(=O)NCc1ccc(F)cc1)C2 (centres undefined)
Completion: 692

Prompt: # RP-LC retention time lookup, item `O=C(Cn1c(=O)cc(-c2nc(C3CC3)no2)c2ccccc21)NCc1ccccc1Cl`
Completion: 956

Prompt: Tell me the measured RP-LC retention time of `Cn1c(=O)c(N2CCN(C(=O)c3cccs3)CC2)nc2cccnc21` , please.
Completion: 793

Prompt: Report RP-LC retention time for `COC(=O)c1c(-c2ccc(Cl)cc2)noc1N1CCOCC1` please.
Completion: 968

Prompt: What value of RP-LC retention time has been reported for the following compound? CC(=O)N1c2ccc(S(=O)(=O)N3CCCC3)cc2CC1C(=O)NCCCN1CCCCCC1 (centres undefined)
Completion: 619

Prompt: Which RP-LC retention time reading was recorded for the compound `COCCNC(=O)Cn1c(N2CCCC2)nc(COC)cc1=O` ?
Completion: 570

Prompt: Reported RP-LC retention time for Cc1ccc(NC(=O)C2(Cc3cccnc3)CCCCC(=O)N2)cc1 (centres undefined) : what is it?
Completion: 611

Prompt: Recorded RP-LC retention time for `O=C(NCc1ccccn1)c1ccc2c(c1)CCCN2S(=O)(=O)c1ccccc1` , please?
Completion: 703

Prompt: Recorded RP-LC retention time of `Cc1ccc2nc(CN3CCN(C(=O)Nc4ccc5c(c4)OCO5)CC3)oc2c1` , please.
Completion: 684

Prompt: So what's the measured RP-LC retention time for this one? `CCOc1ccc(-n2c(N(CC)CC)nc3cc(C(=O)OC)ccc3c2=O)cc1`
Completion: 1230

Prompt: Entry O=C(O)c1ccc(N2CCCC(CN3CCCC3)C2)c(NS(=O)(=O)c2cccc(F)c2)c1 (centres undefined) has what RP-LC retention time?
Completion: 648

Prompt: Consider the compound shown here: `CN1C(=O)CC[C@]2(C(=O)NCc3ccc(F)c(Cl)c3)CCCC[C@@H]12` What is its recorded RP-LC retention time?
Completion: 718

Prompt: Give the measured RP-LC retention time of `O=C(NCCn1nc(-c2ccncc2)ccc1=O)c1ccc(C(F)(F)F)cc1` .
Completion: 570
